Cited source: patent US20200239543A1

Target: T1, mouse CD47 (mouse, UniProt Q61735 19-140, limits assumed)
T1 construct: also called mouse CD47 protein
T1 sequence (looked up): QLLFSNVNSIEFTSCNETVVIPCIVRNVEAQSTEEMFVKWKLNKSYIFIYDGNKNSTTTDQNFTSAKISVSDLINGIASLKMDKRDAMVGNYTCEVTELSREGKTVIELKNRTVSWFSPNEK
Experiment: SPR (Biacore T100 and ProteOn XPR36)
measured_parameter: pKd
Field pKd (float): negative decimal logarithm of the concentration in molar.

Ask: Request the reported pKd associated with SIRP-α D1 variant fused to Fc variant, SEQ ID NO: 214 (Fc fusion) EEELQVIQPDKSVLVAAGETATLRCTATSLFPVGPIQWFRGAGPGRELIYNQREGPFPRVTTVSDLTKRNNMDFSIRIGAITPADAGTYYCVKFRKGSPDDVEFKSGAGTELSVRAKPSERKSSVECPPCPAPPVAGPSVFLFPPKPKDTLMISRTPEVTCVVVDVSHEDPEVQFNWYVDGVEVHNAKTKPREEQFASTFRVVSVLTVVHQDWLNGKEYKCKVSNKGLPSSIEKTISKTKGQPREPQVYTLPPSREEMTKNQVSLTCLVKGFYPSDIAVEWESNGQPENNYKTTPPMLDSDGSFFLYSKLTVDKSRWQQGNVFSCSVMHEALHNHYTQKSLSLSPG
Reply: 7.20
